- System: SK-BR-3 cells
- Method: Measurement of cell growth inhibition (crystal violet staining)
- Assay type: cell-based
- Test Context: Homo sapiens, 72 hours culture with test substance
Observed Property: IC50 (nM)

P. CCCc1cn(-c2ccc(C(N)=O)cc2CC)c2cccc(-n3cnc(-c4cnn(C)c4)c3)c12
Q. CC(C)c1cn(-c2ccc(C(N)=O)c(NC(C)(C)C)c2)c2cccc(-n3cnc(-c4cnn(C)c4)c3)c12
R. CC(C)c1nn(-c2ccc(C(N)=O)cc2Cl)c2cccc(-n3cnc(-c4cccnc4)c3)c12
S. Cn1cc(-c2cn(-c3cccc4c3c(C(F)(F)F)nn4-c3ccc(C(N)=O)cc3NC3CCC3)cn2)cn1
T. Cn1cc(-c2cn(-c3cccc4c3c(C(F)(F)F)nn4-c3ccc(C(N)=O)cc3N)cn2)cn1
// sort entries: IC50, high to low Your task in answering is to list the labels in the requested order.
R, T, S, P, Q

* * *

- Target Entity: human HSP90 alpha protein (N-terminal, amino acids 2-236) (Homo sapiens (Human))
- Method: Measurement of HSP90-binding activity (AlphaScreen competitive assay, biotin-labeled geldanamycin)
- Test Context: inhibition of biotin-labeled geldanamycin binding to purified HSP90; read-out: HSP-binding activity IC50
pIC50: −log10 of the molar value.
Below, each entry is listed alongside its reported pIC50.

INSERT INTO measurements (compound, target_entity, endpoint_value) VALUES
  ('COc1cc2ccn(-c3ccc(C#N)c(Nc4ccccc4)c3)c2cc1OC [Comparative Example 3, reference compound]', 'human HSP90 alpha protein (N-terminal, amino acids 2-236) (Homo sapiens (Human))', '< 5.00'),
  ('COc1cc2ccn(-c3ccc(C(N)=O)c(Nc4ccccc4)c3)c2cc1OC [Comparative Example 4, reference compound]', 'human HSP90 alpha protein (N-terminal, amino acids 2-236) (Homo sapiens (Human))', '< 5.00');

Briefly, pIC50 measured for COc1ccc2c(c1)cc(C)n2-c1ccc(C(N)=O)c(Nc2ccccc2)c1 [Comparative Example 5, reference compound] : < 4.00

Briefly, pIC50 measured for COc1ccc2ccn(-c3ccc(C(N)=O)c(NC4CCC(O)CC4)c3)c2c1 (stereo not shown) [Comparative Example 1, reference compound] : < 4.00

Briefly, pIC50 measured for COc1cccc2c1ccn2-c1ccc(C(N)=O)c(NC2CCC(O)CC2)c1 (stereo not shown) [Comparative Example 2, reference compound] : < 4.00

Briefly, pIC50 measured for "CC(C)c1nn(-c2ccc(C(N)=O)c(NC(C)(C)C)c2)c2cccc(-n3cnc(-c4cnn(C)c4)c3)c12" : 6.59

Briefly, pIC50 measured for NC(=O)c1ccc(-n2ccc3ccccc32)c(Cl)c1 [Comparative Example 6, reference compound] : < 4.00
